Biological target: UniProt P35367
Sequence (P35367 whole entry): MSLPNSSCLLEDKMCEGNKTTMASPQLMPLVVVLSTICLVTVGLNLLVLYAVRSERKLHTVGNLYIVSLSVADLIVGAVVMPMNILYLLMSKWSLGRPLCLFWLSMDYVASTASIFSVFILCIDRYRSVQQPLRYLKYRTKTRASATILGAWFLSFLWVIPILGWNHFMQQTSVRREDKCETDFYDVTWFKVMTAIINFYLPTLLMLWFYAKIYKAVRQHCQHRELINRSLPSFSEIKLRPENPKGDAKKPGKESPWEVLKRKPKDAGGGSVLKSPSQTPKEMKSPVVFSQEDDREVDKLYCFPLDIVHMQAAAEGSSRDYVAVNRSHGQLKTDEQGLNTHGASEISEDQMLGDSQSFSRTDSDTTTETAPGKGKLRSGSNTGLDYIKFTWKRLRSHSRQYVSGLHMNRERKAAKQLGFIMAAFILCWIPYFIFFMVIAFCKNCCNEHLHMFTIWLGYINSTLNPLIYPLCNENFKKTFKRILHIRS
Assay: NanoBRET competition binding assay (displacement of 1) on Nluc-H1R expressing HEK293T cells
Conditions: displacement of 1 (25 nM, KD = 8 nM), whole HEK293T cells, Cheng–Prusoff
pKi: −log10 of the molar value. Square brackets hold non-standard residues; d marks the D form. Peptide text beside a SMILES is read from it. * marks the point of attachment. Propanoyl(3-Pip(4-O-2-BnPh)) = O=C(CCN1CCC(Oc2ccccc2Cc2ccccc2)CC1)*
Measured Parameter: pKi

Compound: CC(C)[C@H](NC(=O)CCN1CCC(Oc2ccccc2Cc2ccccc2)CC1)C(=O)N[C@@H](CO)C(=O)N[C@@H](C)C(=O)N[C@H](Cc1ccccc1)C(N)=O [Compound 9e] ({Propanoyl(3-Pip(4-O-2-BnPh))}-VSA[dF]-NH2)
System Name: UniProt P35367
pKi: 6.82

(I) C[C@H](NC(=O)[C@H](C)NC(=O)[C@H](CCCCN)NC(=O)CCN1CCC(Oc2ccccc2Cc2ccccc2)CC1)C(=O)N[C@H](Cc1ccccc1)C(N)=O [Compound 8i] ({Propanoyl(3-Pip(4-O-2-BnPh))}-KAA[dF]-NH2)
(II) CC(C)[C@H](NC(=O)CCN1CCC(Oc2ccccc2Cc2ccccc2)CC1)C(=O)N[C@@H](CO)C(=O)N[C@@H](Cc1cnc[nH]1)C(=O)N[C@H](Cc1ccccc1)C(N)=O [Compound 10g] ({Propanoyl(3-Pip(4-O-2-BnPh))}-VSH[dF]-NH2)
(III) CC(C)[C@H](NC(=O)CCN1CCC(Oc2ccccc2Cc2ccccc2)CC1)C(=O)N[C@@H](Cc1ccccc1)C(=O)N[C@@H](C)C(=O)N[C@H](Cc1ccccc1)C(N)=O [Compound 9c] ({Propanoyl(3-Pip(4-O-2-BnPh))}-VFA[dF]-NH2)
Prompt line: Hey, quick one: sort these by pKi, low to high? Give me the labels in the order the question wants.
Response line: I, III, II
